- testedTarget: human α-thrombin (Haematologic Technologies) (human), P00734
- method: inhibition of amidolytic activity of human α-thrombin (0.2 nM enzyme, chromogenic substrate Tos-Gly-Pro-Arg-pNA), tight-binding Morrison fit
pKi: −log10 of the molar value.

- binder: "SEQ ID No:2 (MDL-1) DS (sulfated at Y33 and Y36) (modifications not checked) peptide: YPERDSAKDGNEEQERALPVNVQERGEVADADYDDYDEEGTTPTVDPTAQTARPRLQGNQS"
  pKi: "> 7.70"
- binder: "SEQ ID No:2 (MDL-1) Y36 (sulfated at Y36) (modifications not checked) peptide: YPERDSAKDGNEEQERALPVNVQERGEVADADYDDYDEEGTTPTVDPTAQTARPRLQGNQS"
  pKi: "> 7.70"
- binder: "SEQ ID No:1 (MDL-2) Y32 (sulfated at Y32) (modifications not checked) peptide: YPESDSAKDDGNQEKEKALLVKVQERSDDGDYDEYDNDETTHTPDPSAPTARPRIREHQA"
  pKi: "> 8.52"
- binder: "SEQ ID No:1 (MDL-2) Y35 (sulfated at Y35) (modifications not checked) peptide: YPESDSAKDDGNQEKEKALLVKVQERSDDGDYDEYDNDETTHTPDPSAPTARPRIREHQA"
  pKi: "> 8.52"
- binder: "SEQ ID No:2 (MDL-1) Y33 (sulfated at Y33) (modifications not checked) peptide: YPERDSAKDGNEEQERALPVNVQERGEVADADYDDYDEEGTTPTVDPTAQTARPRLQGNQS"
  pKi: "> 7.70"
- binder: "SEQ ID No:1 (MDL-2) DS (sulfated at Y32 and Y35) (modifications not checked) peptide: YPESDSAKDDGNQEKEKALLVKVQERSDDGDYDEYDNDETTHTPDPSAPTARPRIREHQA"
  pKi: "> 8.52"
